system: HepG2; experiment: cells; details: Homo sapiens, HepG2, 48 h
readout: IC50
Quick note: number first, unit second.

Please review the following examples before continuing.
cpd_smiles	result
CCCCOc1cccc2c1C(=O)c1c(OCCCC)cc(C(=O)N[C@H](C(=O)O)C(C)C)cc1C2=O	54.4 µM
CC(C)c1ccc(COc2cccc3c2C(=O)c2c(OCc4ccc(C(C)C)cc4)cc(C(=O)N[C@H](C(=O)O)C(C)C)cc2C3=O)cc1	5.8 µM

Entry CC(C)[C@H](NC(=O)c1cc(OCc2ccccc2)c2c(c1)C(=O)c1cccc(OCc3ccccc3)c1C2=O)C(=O)O , tested on HepG2, has a reported IC50 of 36.1 µM

The recorded IC50 with HepG2 for CC(C)[C@H](NC(=O)c1cc(OCc2cccc(F)c2)c2c(c1)C(=O)c1cccc(OCc3cccc(F)c3)c1C2=O)C(=O)O was 29.6 µM

CC(C)[C@H](NC(=O)c1cc(OCCCc2ccccc2)c2c(c1)C(=O)c1cccc(OCCCc3ccccc3)c1C2=O)C(=O)O tested on HepG2 gave IC50: 3.6 µM
